- tested_target: Nitric oxide synthase, inducible (Homo sapiens)
- Sequence (P35228 whole entry): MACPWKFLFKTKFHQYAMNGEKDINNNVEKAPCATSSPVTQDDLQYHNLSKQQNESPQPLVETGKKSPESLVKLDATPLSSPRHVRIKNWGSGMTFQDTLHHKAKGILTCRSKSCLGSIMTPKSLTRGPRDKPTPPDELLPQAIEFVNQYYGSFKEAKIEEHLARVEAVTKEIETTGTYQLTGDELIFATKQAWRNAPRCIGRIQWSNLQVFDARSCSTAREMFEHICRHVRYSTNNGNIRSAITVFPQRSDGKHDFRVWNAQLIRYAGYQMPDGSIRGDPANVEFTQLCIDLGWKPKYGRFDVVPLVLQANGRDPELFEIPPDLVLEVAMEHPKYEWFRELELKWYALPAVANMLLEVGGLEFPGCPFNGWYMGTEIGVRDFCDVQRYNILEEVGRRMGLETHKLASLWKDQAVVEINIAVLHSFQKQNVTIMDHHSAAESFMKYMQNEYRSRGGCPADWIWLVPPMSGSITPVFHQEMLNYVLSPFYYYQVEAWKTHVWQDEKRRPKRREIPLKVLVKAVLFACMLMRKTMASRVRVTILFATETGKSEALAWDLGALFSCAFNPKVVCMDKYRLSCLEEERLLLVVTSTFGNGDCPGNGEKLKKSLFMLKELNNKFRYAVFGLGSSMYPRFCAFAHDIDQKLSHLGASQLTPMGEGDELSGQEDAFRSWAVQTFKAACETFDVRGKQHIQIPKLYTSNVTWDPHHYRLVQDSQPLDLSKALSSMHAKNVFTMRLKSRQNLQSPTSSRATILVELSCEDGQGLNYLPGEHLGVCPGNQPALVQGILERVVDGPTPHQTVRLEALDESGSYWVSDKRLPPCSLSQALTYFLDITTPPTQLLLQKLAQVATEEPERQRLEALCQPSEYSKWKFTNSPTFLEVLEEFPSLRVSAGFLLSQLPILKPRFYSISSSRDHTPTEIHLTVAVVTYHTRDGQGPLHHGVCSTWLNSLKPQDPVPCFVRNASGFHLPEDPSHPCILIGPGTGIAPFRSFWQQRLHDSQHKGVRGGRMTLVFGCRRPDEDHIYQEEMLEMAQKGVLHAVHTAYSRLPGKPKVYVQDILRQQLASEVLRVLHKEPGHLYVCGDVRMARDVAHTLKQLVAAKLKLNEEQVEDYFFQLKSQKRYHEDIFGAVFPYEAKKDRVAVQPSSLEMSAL
measurement_label: IC50 (µM)

[[record]]
smiles_string = "NC1=Nc2ccc(Cl)cc2[C@H]2CCC[C@@]12F"
result_value = 8.1

[[record]]
smiles_string = "CNCCc1ccc2c(c1)N=C(N)[C@]1(F)CCC[C@H]21"
result_value = 1.9

[[record]]
smiles_string = "NC1=Nc2c(F)cccc2[C@H]2CCC[C@@]12F"
result_value = 25


[P] CNCc1ccc2c(c1)N=C(N)[C@]1(F)CCC[C@H]21
[Q] NC1=Nc2c(F)cc(Cl)cc2[C@H]2CCC[C@@H]12
Req: Which has the smaller recorded IC50, P or Q ? Your choice should be expressed through its label.
Resp: P
(P: 1.4 µM, Q: 8.1 µM)
